- measured target: Cytochrome P450 2D6 (Homo sapiens) (UniProt P10635)
- Sequence (P10635 whole entry, looked up): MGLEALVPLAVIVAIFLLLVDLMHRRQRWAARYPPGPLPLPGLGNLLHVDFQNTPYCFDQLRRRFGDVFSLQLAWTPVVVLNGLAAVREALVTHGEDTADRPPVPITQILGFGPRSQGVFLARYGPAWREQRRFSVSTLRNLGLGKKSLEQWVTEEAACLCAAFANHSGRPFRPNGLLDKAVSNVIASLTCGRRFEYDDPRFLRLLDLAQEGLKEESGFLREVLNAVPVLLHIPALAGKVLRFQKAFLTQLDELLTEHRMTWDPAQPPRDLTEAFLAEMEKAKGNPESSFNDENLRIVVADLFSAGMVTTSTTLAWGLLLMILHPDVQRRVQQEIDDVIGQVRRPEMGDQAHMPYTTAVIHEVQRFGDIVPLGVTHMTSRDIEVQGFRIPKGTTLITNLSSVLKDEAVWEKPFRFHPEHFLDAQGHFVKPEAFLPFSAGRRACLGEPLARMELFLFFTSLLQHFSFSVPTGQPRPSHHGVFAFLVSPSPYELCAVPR
- protocol notes: Cytochrome panel assay with activity outcomes
- condition context: recombinant CYP, pro-luciferin dealkylation, luminescence, p450-cyp2d6; series mostly up to 57.1 µM
Hit rate of the full screen: of about 16,000 compounds, about 2,600 (16%) were called active. Not shown: some 20% with an inconclusive outcome. The call rests on the fitted dose curve; in most records, active means well fitted curve in the direction sought with a large enough effect; inconclusive means small, poorly fitted or top-dose-only effect, or effect the other way; inactive means no such curve, though single readings can be large or run the other way. The entries come from a sample that favours actives as a whole.
Assign a class; possible classes are active, inactive

• N[C@@H](CCCP(=O)(O)O)C(=O)O = inactive

Recorded call for O=[N+]([O-])c1ccc(N2CCNCC2)cc1NC1CC1 ?
inactive

Recorded call for COc1ccc2c(c1O)-c1c(OC)c(OC)cc3c1[C@H](C2)N(C)CC3 ?
inactive

Just for reference, PubChem BioAssay AID1851 is where these values come from.
